- Subject Of Test: KRas G12D (Homo sapiens (Human), UniProt P01116, G12D)
- Sequence (P01116-2 other isoform, or with tags, fused parts or gaps G12D): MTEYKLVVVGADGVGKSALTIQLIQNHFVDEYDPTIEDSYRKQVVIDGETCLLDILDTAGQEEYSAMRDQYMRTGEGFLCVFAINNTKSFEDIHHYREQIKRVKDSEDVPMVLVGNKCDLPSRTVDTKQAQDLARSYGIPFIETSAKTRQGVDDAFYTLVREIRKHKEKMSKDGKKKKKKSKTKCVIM
- Test Summary: KRas G12D Surface Plasmon Resonance (SPR) Binding Assay
- Particulars: Biacore T200, immobilized biotinylated KRAS protein, 1:1 binding model
Measured Quantity: Kd

Here is how some molecules turned out for Kd.
{"Molecule": "CC(C)N1CCC[C@H]1COc1nc(N2C[C@H]3C[C@@H](O)[C@@H](C2)N3)c2cnc(-c3cccc4cccc(Cl)c34)c(F)c2n1 [Example 153]", "Kd": "0.0705 µM"}
{"Molecule": "COC(=O)C12CCC(CN(c3nc(OC[C@@H]4CCCN4C)nc4c(F)c(-c5cc(O)cc6ccccc56)ncc34)C1)N2 (stereo partly shown) [Example 158, bis(2,2,2-trifluoroacetate)]", "Kd": "0.33 µM"}
{"Molecule": "Fc1c(-c2cncc3cccc(Cl)c23)ncc2c(N3C[C@H]4CC[C@@H](C3)N4)nc(OCC34CCCN3CCC4)nc12 [Example 33, bis(2,2,2-trifluoroacetate)]", "Kd": "0.0717 µM"}
{"Molecule": "Oc1cc(-c2ncc3c(N4C[C@H]5CC[C@@H](C4)N5)nc(OCCCN4C[C@@H]5C[C@H]4CO5)nc3c2F)c2ccccc2c1 [Example 24]", "Kd": "0.005 µM"}
{"Molecule": "OCC(O)CCOc1nc(N2C[C@H]3CC[C@@H](C2)N3)c2cnc(-c3cccc4cccc(Cl)c34)c(F)c2n1 (stereo partly shown) [Example 57]", "Kd": "> 1000 µM"}

Readout Kd for OC[C@@H](O)COc1nc(N2C[C@H]3CC[C@@H](C2)N3)c2cnc(-c3cccc4cccc(Cl)c34)c(F)c2n1 [Example 56] , test system KRas G12D (Homo sapiens (Human), UniProt P01116, G12D), was 5.17 µM

Record for Oc1cc(-c2ncc3c(N4C[C@H]5CC[C@@H](C4)N5)nc(OCCc4ncccn4)nc3c2F)c2ccccc2c1 [Example 7] under target or system KRas G12D (Homo sapiens (Human), UniProt P01116, G12D): Kd reported as 0.464 µM

* * *

- Tested on: KRas G12D-mediated phosphorylation of ERK
- Test Summary: Inhibition of KRas G12D-mediated phosphorylation of ERK in AGS cells
- Type: cell-based
- Particulars: Homo sapiens; AGS cells expressing G12D, 3 hours, phospho-ERK normalized to GAPDH
Measured Quantity: IC50 (µM)
Numbers only; they are read as µM.

Lab note: measured IC50 of CN1CCC[C@H]1COc1nc(N2C[C@H]3CC[C@@H](C2)N3)c2cnc(-c3cc(O)cc4ccccc34)c(Cl)c2n1 was 5.05

Please fill in: IC50 reported for Cc1cccc(-c2ncc3c(N4C[C@H]5CC[C@@H](C4)N5)nc(OCC45CCCN4CCC5)nc3c2F)c1C = 7.06

Query CC(C)c1cccc2cc(O)cc(-c3ncc4c(N5CC6CCC(C5)N6)nc(OC[C@@]56CCCN5C[C@H](F)C6)nc4c3F)c12 (racemic) yields IC50 of 0.322

Summary for this compound, CC(C)c1c(Cl)cc(O)cc1-c1ncc2c(N3C[C@H]4CC[C@@H](C3)N4)nc(OC[C@@]34CCCN3C[C@H](F)C4)nc2c1F : IC50 is 0.0465

* * *

Entries and their pIC50 values follow.
- Tested on: KRas G12D-mediated phosphorylation of ERK
- Test Summary: Inhibition of KRas G12D-mediated phosphorylation of ERK in AGS cells
- Type: cell-based
- Particulars: Homo sapiens; AGS cells expressing G12D, 3 hours, phospho-ERK normalized to GAPDH
Quick note: pIC50 means taking -log10 of the concentration in moles per liter.

{"Compound": "Oc1cc(-c2ncc3c(N4CC5CCC(C4)N5)nc(OCC45CCCN4C(CF)CC5)nc3c2F)c2ccccc2c1 (mixture of isomers)", "Measurement": 6.40}
{"Compound": "CNC(=O)OC[C@H]1CC[C@@]2(COc3nc(N4CC5CCC(C4)N5)c4cnc(-c5cccc6cccc(Cl)c56)c(F)c4n3)CCCN12", "Measurement": 6.62}
{"Compound": "Fc1c(-c2cccc(Cl)c2C2CC2)ncc2c(N3CC4CCC(C3)N4)nc(OCC34CCCN3C[C@H](F)C4)nc12 (mixture of isomers)", "Measurement": 6.00}

pIC50 recorded for this compound, Oc1cc(-c2ncc3c(N4C[C@H]5CC[C@@H](C4)N5)nc(OCCCN4C[C@@H]5C[C@H]4CO5)nc3c2F)c2ccccc2c1 , is 5.54

* * *

- Tested on: KRas G12D-mediated phosphorylation of ERK
- Test Summary: Inhibition of KRas G12D-mediated phosphorylation of ERK in AGS cells
- Type: cell-based
- Particulars: Homo sapiens; AGS cells expressing G12D, 3 hours, phospho-ERK normalized to GAPDH
Counter-ions that a name gives are not always drawn.
Measured Quantity: pIC50
Schema: pIC50 number; meaning minus log10 of the concentration expressed in molar units.

{"Compound": "Fc1c(-c2cncc3cccc(Cl)c23)ncc2c(N3C[C@H]4CC[C@@H](C3)N4)nc(OCC34CCCN3CCC4)nc12 [Example 33, bis(2,2,2-trifluoroacetate)]", "Measurement": 5.69}

GET /value?item= CN1CC[C@@H](COc2nc(N3C[C@H]4CC[C@@H](C3)N4)c3cnc(-c4cccc5cccc(Cl)c45)c(F)c3n2)C1 &field=pIC50 returns 4.92

Recorded pIC50 (compound COC1CN2CCCC2(COc2nc(N3CC4CCC(C3)N4)c3cnc(-c4cc(O)cc5cccc(F)c45)c(F)c3n2)C1 (mixture of isomers) ): 7.40

Data point: Fc1c(-c2cccc3cccc(Cl)c23)ncc2c(N3CC4CCC(C3)N4)nc(OCC34CCCN3C[C@H](F)C4)nc12 (stereo partly shown) [Example 226, bis-hydrochloride] ; pIC50 = 5.17

Data point: Fc1cccc(-c2ncc3c(N4C[C@H]5CC[C@@H](C4)N5)nc(OCC45CCCN4CCC5)nc3c2F)c1C1CC1 ; pIC50 = 5.85

// Oc1cc(-c2ncc3c(N4C[C@H]5CC[C@@H](C4)N5)nc(OCC(F)(F)F)nc3c2F)c2ccccc2c1 : pIC50 value = 5.31

# compound CCc1c(F)ccc2cc(O)cc(-c3ncc4c(N5C[C@H]6CC[C@@H](C5)N6)nc(OCC56CCCN5CCC6)nc4c3F)c12 ; its pIC50 = 8.43

Consider Fc1c(-c2c(OC(F)(F)F)ccc3[nH]ncc23)ncc2c(N3C[C@H]4CC[C@@H](C3)N4)nc(OCC34CCCN3CCC4)nc12 . Its measured pIC50 is 5.84

Notebook: FCCc1cccc2cccc(-c3ncc4c(N5C[C@H]6CC[C@@H](C5)N6)nc(OCC56CCCN5CCC6)nc4c3F)c12 , pIC50 read as 5.97

response.value for Oc1cc(-c2ncc3c(N4C[C@H]5CC[C@@H](C4)N5)nc(OCCc4ccccn4)nc3c2F)c2ccccc2c1 (field: pIC50) = 5.07

Value of measured pIC50 for the entry Oc1cc(-c2ncc3c(N4CC5CCC(C4)N5)nc(OC[C@@]45CCCN4C[C@H](F)C5)nc3c2F)c2c(F)cccc2c1 (racemic) : 8.15

Sure, the documented pIC50 for Fc1c(-c2ccccc2C(F)(F)F)ncc2c(N3C[C@H]4CC[C@@H](C3)N4)nc(OCC34CCCN3CCC4)nc12 is 4.97

So, Cc1c(Cl)cccc1-c1ncc2c(N3C[C@H]4CC[C@@H](C3)N4)nc(OCC34CCCN3CCC4)nc2c1F ? Its pIC50 was 5.33

Lab book: pIC50 of O[C@H]1CN2CCC[C@]2(COc2nc(N3CC4CCC(C3)N4)c3cnc(-c4cccc5cccc(Cl)c45)c(F)c3n2)C1 (stereo in doubt) [Example 224, bis-hydrochloride] noted as 5.20

// sample C#Cc1cccc2cc(O)cc(-c3ncc4c(N5C[C@H]6CC[C@@H](C5)N6)nc(OC[C@@]56CCCN5C[C@H](F)C6)nc4c3F)c12 , its pIC50 was 9.10

# pIC50 (compound: Oc1cc(-c2ncc3c(N4C[C@H]5CC[C@@H](C4)N5)nc(OC[C@@]45CCCN4C[C@H](F)C5)nc3c2F)c2c(F)cccc2c1 ) is 8.31

response.value for Cn1ccnc1CCOc1nc(N2C[C@H]3CC[C@@H](C2)N3)c2cnc(-c3cccc4cccc(Cl)c34)c(F)c2n1 (field: pIC50) = 4.99

Lab note: CCCc1cccc2cccc(-c3ncc4c(N5C[C@H]6CC[C@@H](C5)N6)nc(OCC56CCCN5CCC6)nc4c3F)c12 gave pIC50 of 5.61

Record summary for O[C@H]1CN2CCC[C@@]2(COc2nc(N3CC4CCC(C3)N4)c3cnc(-c4cccc5cccc(Cl)c45)c(F)c3n2)C1 : reported pIC50 = 5.37

Form field pIC50, entry O[C@@H]1C[C@@H]2CN(c3nc(OCC45CCCN4CCC5)nc4c(F)c(-c5cccc6cccc(Cl)c56)ncc34)C[C@H]1N2 : 5.67

Summary for this compound, C#Cc1c(F)ccc2cccc(-c3ncc4c(N5C[C@H]6CC[C@@H](C5)N6)nc(OC[C@]56CCCN5[C@@H](COC(=O)N(C)C)CC6)nc4c3F)c12 : pIC50 is 7.89

Values were extracted from patent US11453683B1.
